Recorded values, source paper PMC5489123.

# TARGET_OR_SYSTEM: Tiam1 PDZ domain (Homo sapiens)
# Sequence (Q13009 841-930): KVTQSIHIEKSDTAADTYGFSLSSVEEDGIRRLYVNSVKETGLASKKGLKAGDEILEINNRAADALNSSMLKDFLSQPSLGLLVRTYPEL
# ASSAY_PROTOCOL: Fluorescence anisotropy binding assay of dansylated peptides
Ends that are not written are not given here.
MEASURE: Kd

Recorded result, Ac-NKDKEYYV [Neurexin1] , Kd: > 100 µM
